Tested on: Rh18 complex spheroid viability, percent test/control
Assay: Anticancer human tumor Rh18 cell line growth inhibition [Asc];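 further: spheroids exposed to compound for 7 days; 100% = DMSO vehicle control wells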
Conditions: second compound 0.0316 µM; first compound 1 µM; active compounds read low
readoutName: viability, T/C (%)
Number only, in %; omit the unit.

Field: viability, T/C (Rh18 complex spheroid viability, percent test/control). Entry: C=C(F)C(=O)N1CCN(c2nc(OCC3CCCN3C)nc3c2CCN(c2cccc4cccc(Cl)c24)C3)CC1CC#N (centres undefined) + CNC(C)C(=O)NC1CN(S(=O)(=O)c2cccc(S(=O)(=O)N3CCC4CCC(C(=O)NC(c5ccccc5)c5ccccc5)N4C(=O)C(NC(=O)C(C)NC)C3)c2)CCC2CCC(C(=O)NC(c3ccccc3)c3ccccc3)N2C1=O 39.7

Field: viability, T/C (Rh18 complex spheroid viability, percent test/control). Entry: O=C(c1cc(Cc2n[nH]c(=O)c3ccccc23)ccc1F)N1CCN(C(=O)C2CC2)CC1 + CNC(C)C(=O)NC1CN(S(=O)(=O)c2cccc(S(=O)(=O)N3CCC4CCC(C(=O)NC(c5ccccc5)c5ccccc5)N4C(=O)C(NC(=O)C(C)NC)C3)c2)CCC2CCC(C(=O)NC(c3ccccc3)c3ccccc3)N2C1=O 34.5

Field: viability, T/C (Rh18 complex spheroid viability, percent test/control). Entry: C=CC(=O)N1CCN(c2nc(=O)n(-c3c(C)ccnc3C(C)C)c3nc(-c4c(O)cccc4F)c(F)cc23)C(C)C1 (centres undefined) + CNC(C)C(=O)NC1CN(S(=O)(=O)c2cccc(S(=O)(=O)N3CCC4CCC(C(=O)NC(c5ccccc5)c5ccccc5)N4C(=O)C(NC(=O)C(C)NC)C3)c2)CCC2CCC(C(=O)NC(c3ccccc3)c3ccccc3)N2C1=O 46.2

Field: viability, T/C (Rh18 complex spheroid viability, percent test/control). Entry: CCN1CCN(Cc2ccc(Nc3ncc(F)c(-c4cc(F)c5nc(C)n(C(C)C)c5c4)n3)nc2)CC1 + CNC(C)C(=O)NC1CN(S(=O)(=O)c2cccc(S(=O)(=O)N3CCC4CCC(C(=O)NC(c5ccccc5)c5ccccc5)N4C(=O)C(NC(=O)C(C)NC)C3)c2)CCC2CCC(C(=O)NC(c3ccccc3)c3ccccc3)N2C1=O 90.9

---

System: Rh18 complex spheroid viability, percent test/control
Test: Anticancer human tumor Rh18 cell line growth inhibition [Asc];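 further: spheroids exposed to compound for 7 days; 100% = DMSO vehicle control wells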
Settings: second compound 1 µM; first compound 0.000316 µM; active compounds read low
readoutName: viability, T/C (%)
Number only, in %; omit the unit.

# compound, measurementTarget, unit, testResult
measured = [
    ("NC1CCC(NC2CC2c2ccccc2)CC1 (centres undefined) + Cc1c(S(C)(=O)=O)c(-c2cc(F)cc(N3CCN(c4ccc(NS(=O)(=O)c5ccc(NC(CCN6CCC(C(=O)OCCCP(=O)(O)O)CC6)CSc6ccccc6)c(S(=O)(=O)C(F)(F)F)c5)cc4)CC3)c2)c(-c2ccc(Cl)cc2)n1C(C)C", "Rh18 complex spheroid viability, percent test/control", "%", 6.65),
    ("NC1CCC(NC2CC2c2ccccc2)CC1 (centres undefined) + CNC(C)C(=O)NC1CN(S(=O)(=O)c2cccc(S(=O)(=O)N3CCC4CCC(C(=O)NC(c5ccccc5)c5ccccc5)N4C(=O)C(NC(=O)C(C)NC)C3)c2)CCC2CCC(C(=O)NC(c3ccccc3)c3ccccc3)N2C1=O", "Rh18 complex spheroid viability, percent test/control", "%", 43.8),
    ("Cn1ncnc1[C@H]1c2n[nH]c(=O)c3cc(F)cc(c23)N[C@@H]1c1ccc(F)cc1 + CNC(C)C(=O)NC1CN(S(=O)(=O)c2cccc(S(=O)(=O)N3CCC4CCC(C(=O)NC(c5ccccc5)c5ccccc5)N4C(=O)C(NC(=O)C(C)NC)C3)c2)CCC2CCC(C(=O)NC(c3ccccc3)c3ccccc3)N2C1=O", "Rh18 complex spheroid viability, percent test/control", "%", 49.1),
]

From here, focus on the item given below.
Could you tell me which viability, T/C is on file for Cn1ncnc1[C@H]1c2n[nH]c(=O)c3cc(F)cc(c23)N[C@@H]1c1ccc(F)cc1 + Cc1c(S(C)(=O)=O)c(-c2cc(F)cc(N3CCN(c4ccc(NS(=O)(=O)c5ccc(NC(CCN6CCC(C(=O)OCCCP(=O)(O)O)CC6)CSc6ccccc6)c(S(=O)(=O)C(F)(F)F)c5)cc4)CC3)c2)c(-c2ccc(Cl)cc2)n1C(C)C ? 10.5
